Biological target: T1, orthogonal hCD122 receptor (hoRb), hCD122 with H133D and Y134F (human, UniProt P14784 27-550)
T1 sequence: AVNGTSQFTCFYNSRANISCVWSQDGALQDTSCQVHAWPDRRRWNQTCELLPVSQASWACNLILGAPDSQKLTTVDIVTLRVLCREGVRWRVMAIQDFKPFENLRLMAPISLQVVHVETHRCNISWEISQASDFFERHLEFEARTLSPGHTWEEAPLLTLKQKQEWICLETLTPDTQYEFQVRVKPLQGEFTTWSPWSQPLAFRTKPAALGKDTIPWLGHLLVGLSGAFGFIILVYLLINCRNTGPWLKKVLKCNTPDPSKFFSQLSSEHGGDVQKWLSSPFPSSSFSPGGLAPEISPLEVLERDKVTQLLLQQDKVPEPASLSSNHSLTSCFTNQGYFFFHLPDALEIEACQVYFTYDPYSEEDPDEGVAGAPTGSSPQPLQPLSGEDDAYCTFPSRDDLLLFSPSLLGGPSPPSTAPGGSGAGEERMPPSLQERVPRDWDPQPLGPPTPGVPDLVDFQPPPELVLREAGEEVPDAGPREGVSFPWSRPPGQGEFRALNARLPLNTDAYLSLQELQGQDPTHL
Assay: cell-based or functional assay
Listing of recorded NKL Ortho Proliferation Signal 1:2 by entry.
Measured parameter: NKL Ortho Proliferation Signal 1:2

binder="I86V, SQVLKA (ligand) APTSSSTKKTQLQLSQLLVLLKAILNGINNYKNPKLTRMLTFKFYMPKKATELKHLQCLEEELKPLEEVLNLAQSKNFHLRPRDLVSNINVIVLELKGSETTFMCEYADETATIVEFLNRWITFCQSIISTLT" measured_parameter="NKL Ortho Proliferation Signal 1:2" observed_value=39900
binder="SQVLYA, E116G (ligand) APTSSSTKKTQLQLSQLLVLLYAILNGINNYKNPKLTRMLTFKFYMPKKATELKHLQCLEEELKPLEEVLNLAQSKNFHLRPRDLISNINVIVLELKGSETTFMCEYADETATIVEFLNRWITFCQSIISTLT" measured_parameter="NKL Ortho Proliferation Signal 1:2" observed_value=13200
binder="L18F, SQVLKA (ligand) APTSSSTKKTQLQLSQLFVLLKAILNGINNYKNPKLTRMLTFKFYMPKKATELKHLQCLEEELKPLEEVLNLAQSKNFHLRPRDLISNINVIVLELKGSETTFMCEYADETATIVEFLNRWITFCQSIISTLT" measured_parameter="NKL Ortho Proliferation Signal 1:2" observed_value=48600
